Origin of the recorded values: patent US20230097157A1

# TARGET_UNDER_TEST: human plasma kallikrein (Homo sapiens)
# Sequence (P03952 391-638 limits assumed): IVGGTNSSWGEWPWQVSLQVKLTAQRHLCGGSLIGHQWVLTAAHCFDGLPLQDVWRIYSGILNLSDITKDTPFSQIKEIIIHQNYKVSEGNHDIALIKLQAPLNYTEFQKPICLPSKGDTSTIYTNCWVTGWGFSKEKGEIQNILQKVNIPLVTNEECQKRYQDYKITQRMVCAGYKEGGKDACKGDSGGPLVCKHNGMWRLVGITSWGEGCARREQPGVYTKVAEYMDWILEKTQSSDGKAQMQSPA
# Sequence (P03952 20-390 partner limits assumed): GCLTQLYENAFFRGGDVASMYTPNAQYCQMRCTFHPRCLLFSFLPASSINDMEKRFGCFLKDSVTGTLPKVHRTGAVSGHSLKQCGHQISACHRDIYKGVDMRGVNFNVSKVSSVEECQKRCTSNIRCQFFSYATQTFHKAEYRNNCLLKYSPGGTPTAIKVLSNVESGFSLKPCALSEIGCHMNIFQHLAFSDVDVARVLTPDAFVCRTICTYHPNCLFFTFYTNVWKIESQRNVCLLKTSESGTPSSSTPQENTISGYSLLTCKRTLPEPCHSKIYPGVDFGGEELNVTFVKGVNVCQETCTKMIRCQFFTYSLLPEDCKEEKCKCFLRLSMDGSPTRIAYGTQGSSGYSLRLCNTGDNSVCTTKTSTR
# TEST: Kallikrein inhibition assay (FLINT) utilizing a quenched AMC peptide substrate Z-Gly-Pro-Arg-AMC
# Type: biochemical
# CONDITION_SET: kinetic (KIN) reads; values in nM; read-out: Kallikrein KIN Inh IC50
# From the text: Biological Example 2: Kallikrein Inhibition Assay Utilizing a Quenched AMC Peptide Substrate A fluorescence intensity (FLINT) based assay was used to monitor inhibition of human plasma kallikrein. The peptide substrate, Z-Gly-Pro-Arg-AMC (Purchased from Bachem; Catalog #I-1150) was chosen based on its relatively low KM for kallikrein which enables running the assay at lower substrate concentrations to control background fluorescence. […]
ASSAY_METRIC: log10(IC50) (log10 of the value in nM)
log10 IC50, nM

Reference set, count: 5
MOLECULE	log10(IC50)
C[C@@H]1C[C@@H](c2ncc(-c3cn[nH]c3)[nH]2)n2c1nc(-c1c(-n3cnnn3)ccc(Cl)c1F)cc2=O (stereo in doubt)	2.16
CC(O)c1nccc(-c2cnc([C@H]3CC4(CC4)c4cc(-c5c(-n6cnnn6)ccc(Cl)c5F)cc(=O)n43)[nH]2)c1F (single isomer, unassigned)	1.86
C[C@@H]1C[C@@H](c2ncc(-c3ccnc(CO)c3F)[nH]2)n2c1cc(-c1c(-n3cnnn3)ccc(Cl)c1F)cc2=O (relative stereo)	1.67
Nc1nsc2cc(-c3cnc([C@H]4CC5(CC5)c5nc(-c6c(-n7cnnn7)ccc(Cl)c6F)cc(=O)n54)[nH]3)ccc12	2.15
C[C@H]1C[C@@H](c2ncc(-c3ccnc(C(F)(F)F)c3)[nH]2)n2c1nc(-c1c(-n3cnnn3)ccc(Cl)c1F)cc2=O (relative stereo)	1.97

Ask: Tell me the measured log10(IC50) of COc1nccc(-c2cnc([C@H]3C[C@H](C)c4nc(-c5c(-n6cnnn6)ccc(Cl)c5F)cc(=O)n43)[nH]2)n1 (relative stereo) , please.
Result: 2.06

Ask: Tell me the measured log10(IC50) of COC(=O)Nc1ccc(-c2cnc([C@@H]3C[C@@H](C)c4nc(-c5c(-n6cnnn6)ccc(Cl)c5F)cc(=O)n43)[nH]2)cc1 (stereo in doubt) , please.
Result: 0.53

Ask: Tell me the measured log10(IC50) of CCO[C@@H]1C[C@@H](c2ncc(-c3ccc(N)nc3F)[nH]2)n2c1cc(-c1c(-n3cnnn3)ccc(Cl)c1F)cc2=O , please.
Result: 1.26

Ask: Tell me the measured log10(IC50) of C[C@H]1C[C@@H](c2ncc(-c3ccc(N)nc3Cl)[nH]2)n2c1cc(-c1c(-n3cnnn3)ccc(Cl)c1F)cc2=O , please.
Result: 1.06

Ask: Tell me the measured log10(IC50) of C[C@H]1C[C@@H](c2[nH]c(-c3ccc(N)nc3F)nc2F)n2c1cc(-c1c(-n3cnnn3)ccc(Cl)c1F)cc2=O , please.
Result: 0.86

Ask: Tell me the measured log10(IC50) of O=c1cc(-c2c(-n3cnnn3)ccc(Cl)c2F)nc2n1C(c1ncc(-c3ccnc(C4(O)CC4)c3F)[nH]1)CC21CC1 (single isomer, unassigned) , please.
Result: 1.99

Ask: Tell me the measured log10(IC50) of C[C@H]1C[C@@H](c2ncc(-c3cc4c(cn3)NC(=O)CC4)[nH]2)n2c1cc(-c1c(-n3cnnn3)ccc(Cl)c1F)cc2=O (single isomer, unassigned) [Example 92] , please.
Result: 1.19
